Biological target: PBP1a from Acinetobacter baumannii (ATCC 19606) (Acinetobacter baumannii, UniProt A0ABX6CK30)
Sequence (A0ABX6CK30 1-851): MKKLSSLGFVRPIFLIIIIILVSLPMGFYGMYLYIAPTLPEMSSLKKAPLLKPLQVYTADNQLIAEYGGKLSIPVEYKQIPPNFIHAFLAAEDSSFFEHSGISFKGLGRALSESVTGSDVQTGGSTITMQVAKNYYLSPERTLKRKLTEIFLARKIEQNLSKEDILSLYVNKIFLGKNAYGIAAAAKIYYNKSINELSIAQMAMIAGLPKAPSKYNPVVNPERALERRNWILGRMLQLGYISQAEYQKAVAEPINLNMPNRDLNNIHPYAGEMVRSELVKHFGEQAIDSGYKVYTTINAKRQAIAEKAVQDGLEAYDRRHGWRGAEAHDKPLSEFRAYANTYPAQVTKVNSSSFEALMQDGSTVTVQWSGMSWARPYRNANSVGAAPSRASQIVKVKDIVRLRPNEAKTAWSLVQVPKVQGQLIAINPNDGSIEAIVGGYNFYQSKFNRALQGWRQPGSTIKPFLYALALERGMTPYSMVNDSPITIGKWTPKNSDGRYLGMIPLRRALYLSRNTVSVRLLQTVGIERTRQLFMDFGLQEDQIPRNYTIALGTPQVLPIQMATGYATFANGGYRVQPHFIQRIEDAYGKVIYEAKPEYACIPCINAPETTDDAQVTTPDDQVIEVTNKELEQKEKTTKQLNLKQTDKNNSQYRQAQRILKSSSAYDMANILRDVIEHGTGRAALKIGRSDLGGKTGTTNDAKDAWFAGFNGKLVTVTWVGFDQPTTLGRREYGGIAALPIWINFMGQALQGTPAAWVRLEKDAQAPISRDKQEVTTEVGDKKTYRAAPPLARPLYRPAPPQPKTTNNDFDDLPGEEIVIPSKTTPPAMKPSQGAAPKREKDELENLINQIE
quantity.kind: IC50

Recorded results for 2 molecules are shown here.
molecule	quantity.kind	measured
O=C(NCCCN1CCN(C(=O)N[C@@H](C(=O)N[C@H]2Cc3ccc(F)c(C(=O)O)c3OB2O)c2cc(F)c(O)c(O)c2Cl)C(=O)C1=O)c1ccnc(F)c1F	IC50	> 250 µM
CS(=O)(=O)N1CCN(C(=O)N[C@@H](C(=O)N[C@H]2Cc3ccc(F)c(C(=O)O)c3OB2O)c2ccc(P(=O)(O)O)c(F)c2F)C1=O	IC50	> 250 µM

QUERY: Recorded IC50 for O=C(O)c1c(F)ccc2c1OB(O)[C@@H](NC(=O)C(NC(=O)N1CCN(Cc3ccc(O)c(O)c3Cl)C(=O)C1=O)c1cc(F)c(O)c(O)c1Cl)C2 (stereo partly drawn) , please?
RESULT: > 250 µM

====

Target: PBP3 from Pseudomonas aeruginosa (PAO1) (Pseudomonas aeruginosa)
Sequence (G3XD46 whole entry): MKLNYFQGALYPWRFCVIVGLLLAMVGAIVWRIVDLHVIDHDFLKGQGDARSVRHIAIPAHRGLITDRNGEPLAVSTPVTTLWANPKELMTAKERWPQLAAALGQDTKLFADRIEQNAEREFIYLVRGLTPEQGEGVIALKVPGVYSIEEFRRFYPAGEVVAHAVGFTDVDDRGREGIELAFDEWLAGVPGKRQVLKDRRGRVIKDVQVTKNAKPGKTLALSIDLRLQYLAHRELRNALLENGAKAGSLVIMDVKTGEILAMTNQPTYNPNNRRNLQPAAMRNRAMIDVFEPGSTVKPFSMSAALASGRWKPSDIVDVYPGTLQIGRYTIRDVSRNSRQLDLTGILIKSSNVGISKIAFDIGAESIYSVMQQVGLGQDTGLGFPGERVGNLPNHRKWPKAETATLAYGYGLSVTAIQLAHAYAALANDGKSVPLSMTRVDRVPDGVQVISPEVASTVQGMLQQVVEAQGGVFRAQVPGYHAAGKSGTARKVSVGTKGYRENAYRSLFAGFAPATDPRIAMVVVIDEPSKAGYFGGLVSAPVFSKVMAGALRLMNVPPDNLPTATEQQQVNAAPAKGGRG
Assay: Bocillin-FL fluorescence polarization competition binding, P. aeruginosa PBP3
Conditions: beta-lactam validation of FP competition assay; 15 minutes preincubation
quantity.kind: EC50

QUERY: Recorded EC50 for C[C@H]1[C@H](NC(=O)/C(=N\OC(C)(C)C(=O)O)c2csc(N)n2)C(=O)N1S(=O)(=O)O [aztreonam, reference compound] , please?
RESULT: < 500 nM

====

pIC50: −log10 of the molar value.
Test system PBP3 from Acinetobacter baumannii (ATCC 19606) (Acinetobacter baumannii), pIC50 listed for each of the compounds.

QUERY: Lab request: please report pIC50 under test system PBP3 from Acinetobacter baumannii (ATCC 19606) (Acinetobacter baumannii) for O=C(NCCN1CCN(C(=O)NC(C(=O)N[C@H]2Cc3ccc(F)c(C(=O)O)c3OB2O)c2cc(F)c(O)c(O)c2Cl)C(=O)C1=O)c1ccncc1 (stereo partly drawn) [Example 216]
RESULT: > 5.00

QUERY: Lab request: please report pIC50 under test system PBP3 from Acinetobacter baumannii (ATCC 19606) (Acinetobacter baumannii) for O=C(NCCCN1CCN(C(=O)NC(C(=O)N[C@H]2Cc3ccc(F)c(C(=O)O)c3OB2O)c2cc(F)c(O)c(O)c2Cl)C(=O)C1=O)c1nccs1 (stereo partly drawn) [Example 211]
RESULT: > 5.00

QUERY: Lab request: please report pIC50 under test system PBP3 from Acinetobacter baumannii (ATCC 19606) (Acinetobacter baumannii) for O=C(NCCCN1CCN(C(=O)NC(C(=O)N[C@H]2Cc3ccc(F)c(C(=O)O)c3OB2O)c2cc(F)c(O)c(O)c2Cl)C(=O)C1=O)c1ccc(O)cc1 (stereo partly drawn) [Example 203]
RESULT: > 5.00

====

Tested on: N. gonorrhoeae WHO X
Test: Liquid broth MIC in Fastidious broth
Settings: Neisseria gonorrhoeae, read-out: Minimum Inhibitory Concentration (MIC), N. gonorrhoeae WHO X
quantity.kind: MIC

QUERY: Recorded MIC for O=C(O)c1cccc2c1OB(O)[C@@H](NC(=O)C(NC(=O)c1cnc[nH]c1=O)c1ccc(P(=O)(O)O)cc1)C2 (stereo partly drawn) [Example 176] , please?
RESULT: 16 to 32 µg/mL

QUERY: Recorded MIC for O=C(O)c1c(F)ccc2c1OB(O)[C@@H](NC(=O)C(NC(=O)N1CCN(Cc3ccc(O)c(O)c3Cl)C(=O)C1=O)c1ccc(P(=O)(O)O)cc1)C2 (stereo partly drawn) [Example 8] , please?
RESULT: 4 to 8 µg/mL

QUERY: Recorded MIC for CC(=O)N1CCC[C@@H]1C(=O)N[C@H](C(=O)N[C@H]1Cc2cccc(C(=O)O)c2OB1O)c1ccc(P(=O)(O)O)cc1 [Example 33] , please?
RESULT: 16 to 32 µg/mL

QUERY: Recorded MIC for O=C(NCCN1CCN(C(=O)NC(C(=O)N[C@H]2Cc3ccc(F)c(C(=O)O)c3OB2O)c2cc(F)c(O)c(O)c2Cl)C(=O)C1=O)c1cccc(O)c1 (stereo partly drawn) [Example 215] , please?
RESULT: > 64 µg/mL

QUERY: Recorded MIC for Cn1cccc(C(=O)N[C@@H](C(=O)N[C@H]2Cc3cccc(C(=O)O)c3OB2O)c2ccc(P(=O)(O)O)cc2)c1=O (single isomer, unassigned) [Example 182] , please?
RESULT: 16 to 32 µg/mL

QUERY: Recorded MIC for Nc1ncc(C(=O)N[C@@H](C(=O)N[C@H]2Cc3cccc(C(=O)O)c3OB2O)c2ccc(P(=O)(O)O)cc2)s1 (racemic) [Example 50] , please?
RESULT: 16 to 32 µg/mL

====

Test system: N. gonorrhoeae WHO L
Experiment: Liquid broth MIC in Fastidious broth
Details: Neisseria gonorrhoeae, read-out: Minimum Inhibitory Concentration (MIC), N. gonorrhoeae WHO L
quantity.kind: MIC

Recorded results for 3 molecules are shown here.
molecule	quantity.kind	measured
O=C(NCCCN1CCN(C(=O)NC(C(=O)N[C@H]2Cc3ccc(F)c(C(=O)O)c3OB2O)c2cc(F)c(O)c(O)c2Cl)C(=O)C1=O)c1cccc(O)c1 (some centres unmarked)	MIC	> 64 µg/mL
O=C(O)c1cccc2c1OB(O)[C@@H](NC(=O)[C@@H](NC(=O)c1cccn(C(F)F)c1=O)c1ccc(P(=O)(O)O)cc1)C2 (single isomer, unassigned)	MIC	16 to 32 µg/mL
O=C(O)c1c(F)ccc2c1OB(O)[C@@H](NC(=O)C(NC(=O)N1CCN(Cc3ccc(O)c(O)c3Cl)C(=O)C1=O)c1ccc(P(=O)(O)O)c(F)c1)C2 (some centres unmarked)	MIC	4 to 8 µg/mL

QUERY: Lab request: please report MIC under test system N. gonorrhoeae WHO L for CCN1CCN(C(=O)N[C@H](C(=O)N[C@H]2Cc3ccc(F)c(C(=O)O)c3OB2O)c2ccc(P(=O)(O)O)cc2)C(=O)C1=O (single isomer, unassigned)
RESULT: 4 to 8 µg/mL

QUERY: Lab request: please report MIC under test system N. gonorrhoeae WHO L for O=C(O)c1cccc2c1OB(O)[C@@H](NC(=O)C(NC(=O)N1CCN(Cc3ccc(O)c(O)c3Cl)C(=O)C1=O)c1ccc(P(=O)(O)O)cc1)C2 (some centres unmarked)
RESULT: 4 to 8 µg/mL

====

This listing pairs molecules with measured MIC.
Test system: B. thailandensis ATCC 700388
Test: microbe, parasite or virus in culture
Type: cell-based
Details: Burkholderia thailandensis, ATCC700388, read-out: Minimum inhibitory concentration (MIC), B. thailandensis ATCC 700388

molecule	measured.on	measured
O=C(NCCCN1CCN(C(=O)NC(C(=O)N[C@H]2Cc3ccc(F)c(C(=O)O)c3OB2O)c2cc(F)c(O)c(O)c2Cl)C(=O)C1=O)c1ccc(F)c(O)c1 (some centres unmarked)	B. thailandensis ATCC 700388	2 to 4 µg/mL
O=C(O)c1c(F)ccc2c1OB(O)[C@@H](NC(=O)[C@H](NC(=O)N1CCN(Cc3ccc(O)c(O)c3Cl)C(=O)C1=O)c1ccc(P(=O)(O)O)c(F)c1F)C2	B. thailandensis ATCC 700388	< 1 µg/mL
O=C(O)c1c(F)ccc2c1OB(O)[C@@H](NC(=O)[C@H](NC(=O)N1CCN(C3CCN(C(=O)Nc4cc(F)c(F)c(O)c4F)CC3)C(=O)C1=O)c1cc(F)c(O)c(O)c1Cl)C2	B. thailandensis ATCC 700388	2 to 4 µg/mL
O=C(O)c1c(F)ccc2c1OB(O)[C@@H](NC(=O)[C@H](NC(=O)N1CCN(C3CCN(C(=O)c4ccc(F)c(O)c4)CC3)C1=O)c1cc(F)c(O)c(O)c1Cl)C2 (single isomer, unassigned)	B. thailandensis ATCC 700388	< 1 µg/mL

Turning to the following molecule.
QUERY: Recorded MIC for O=C(O)c1c(F)ccc2c1OB(O)[C@@H](NC(=O)C(NC(=O)N1CCN(C3CCN(C(=O)Nc4cc(O)c(F)c(F)c4)CC3)C(=O)C1=O)c1cc(F)c(O)c(O)c1Cl)C2 (some centres unmarked) , please?
RESULT: 8 to 16 µg/mL
